Biological target: human 5HT1A receptor (Homo sapiens, UniProt P08908)
Sequence (P08908 whole entry): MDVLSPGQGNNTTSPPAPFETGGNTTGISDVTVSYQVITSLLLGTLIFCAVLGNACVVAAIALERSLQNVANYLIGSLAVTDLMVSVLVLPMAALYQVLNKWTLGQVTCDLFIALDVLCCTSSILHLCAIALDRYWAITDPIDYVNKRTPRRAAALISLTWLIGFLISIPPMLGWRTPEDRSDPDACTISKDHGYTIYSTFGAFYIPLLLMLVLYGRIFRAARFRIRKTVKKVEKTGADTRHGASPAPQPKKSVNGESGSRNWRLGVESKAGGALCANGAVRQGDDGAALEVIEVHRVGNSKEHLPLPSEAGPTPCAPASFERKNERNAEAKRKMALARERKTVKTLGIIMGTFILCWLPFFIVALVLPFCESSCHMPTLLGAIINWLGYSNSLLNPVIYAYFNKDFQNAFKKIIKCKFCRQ
Assay: Binding to human 5HT1A receptor (HeLa HA7 cell line)
Settings: HeLa HA7 cells; [3H]-DPAT ligand 1 nM; read-out: Ki 5HT1A
Where a name gives a salt, the structure may show the parent alone.
Reported Ki by item:

- molecule: "CS(=O)(=O)Nc1ccc(N2CCN(CCOc3ccc4[nH]cc(CCN)c4c3)CC2)cc1 [Example 41, hydrochloride]"
  target or system: "human 5HT1A receptor (Homo sapiens, UniProt P08908)"
  Ki, nM: 28
- molecule: "NCCc1c[nH]c2ccc(OCC(=O)N3CCN(c4ccc(NS(=O)(=O)c5ccc([N+](=O)[O-])cc5)cc4)CC3)cc12 [Example 26, hydrochloride]"
  target or system: "human 5HT1A receptor (Homo sapiens, UniProt P08908)"
  Ki, nM: 16.5
